target: cyclophilin D (Cyp D) (Homo sapiens, UniProt P30405); assay: Protease-free PPIase assay, cyclophilin D; format: biochemical; conditions: protease-free PPIase assay, class symbols; read-out: CypD Ki
Sequence (P30405 30-207): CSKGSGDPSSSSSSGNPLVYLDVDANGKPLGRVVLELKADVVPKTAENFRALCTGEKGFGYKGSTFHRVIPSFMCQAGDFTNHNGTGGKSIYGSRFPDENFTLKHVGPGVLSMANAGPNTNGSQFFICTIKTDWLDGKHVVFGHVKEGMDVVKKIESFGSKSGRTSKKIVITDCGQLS
Numbered stars: 1 amine (or outer) side, 2 acyl side, 3 side chain; on linkers, the order of the positions; unused ones are H or OH. Square brackets hold non-standard residues; d marks the D form. Peptide text beside a SMILES is read from it. X19 = C[C@H](CCN1CCCC(C(F)(F)F)C1)[C@@H](O)[C@H](C(=O)[*:2])N(C)[*:1]; X2 = C[C@H](CCCc1cccc(N2CCOCC2)n1)[C@@H](O)[C@H](C(=O)[*:2])N(C)[*:1]; X33 = C[C@H](CCN1CCC(F)(CO)CC1)[C@@H](O)[C@H](C(=O)[*:2])N(C)[*:1]; X17 = C[C@H](CCN(C)CCc1ccccn1)[C@@H](O)[C@H](C(=O)[*:2])N(C)[*:1]; X12 = C[C@H](CCN(C)Cc1ccncc1)[C@@H](O)[C@H](C(=O)[*:2])N(C)[*:1]; X24 = C[C@H](CCN(C)CC1COCCO1)[C@@H](O)[C@H](C(=O)[*:2])N(C)[*:1]; d(aThr) = C[C@@H](O)[C@@H](N)C(=O)O; NMeL = CN[C@@H](CC(C)C)C(=O)O; dNMeL = CN[C@H](CC(C)C)C(=O)O; dNMeV = CN[C@@H](C(=O)O)C(C)C; Hiv = CC(C)[C@H](O)C(=O)O; Sar = CNCC(=O)O

MOLECULE	Ki
CC(C)C[C@@H]1C(=O)N[C@H](CC(C)C)C(=O)N(C)[C@H](C(C)C)C(=O)N(C)[C@H]([C@H](O)[C@H](C)CCN(C)Cc2ccncc2)C(=O)N[C@H]([C@@H](C)O)C(=O)N(C)CC(=O)N(C)[C@@H](CC(C)C)C(=O)N[C@H](CC(C)C)C(=O)N(C)[C@H](CC(C)C)C(=O)N[C@H](C)C(=O)O[C@@H](C(C)C)C(=O)N1C [Example 3] (cyclo([Hiv][dNMeL][dL][dNMeV][X12][d(aThr)][Sar][NMeL][dL][dNMeL][dA]))	1 to 25 nM
CC(C)C[C@@H]1C(=O)N[C@H](CC(C)C)C(=O)N(C)[C@H](C(C)C)C(=O)N(C)[C@H]([C@H](O)[C@H](C)CCN(C)CC2COCCO2)C(=O)N[C@H]([C@@H](C)O)C(=O)N(C)CC(=O)N(C)[C@@H](CC(C)C)C(=O)N[C@H](CC(C)C)C(=O)N(C)[C@H](CC(C)C)C(=O)N[C@H](C)C(=O)O[C@@H](C(C)C)C(=O)N1C (stereo partly drawn) [Example 8] (cyclo([Hiv][dNMeL][dL][dNMeV][X24][d(aThr)][Sar][NMeL][dL][dNMeL][dA]))	1 to 25 nM
CC(C)C[C@@H]1C(=O)N[C@H](CC(C)C)C(=O)N(C)[C@H](C(C)C)C(=O)N(C)[C@H]([C@H](O)[C@H](C)CCN2CCC(F)(CO)CC2)C(=O)N[C@H]([C@@H](C)O)C(=O)N(C)CC(=O)N(C)[C@@H](CC(C)C)C(=O)N[C@H](CC(C)C)C(=O)N(C)[C@H](CC(C)C)C(=O)N[C@H](C)C(=O)O[C@@H](C(C)C)C(=O)N1C [Example 25] (cyclo([Hiv][dNMeL][dL][dNMeV][X33][d(aThr)][Sar][NMeL][dL][dNMeL][dA]))	100 to 300 nM
CC(C)C[C@@H]1C(=O)N[C@H](CC(C)C)C(=O)N(C)[C@H](C(C)C)C(=O)N(C)[C@H]([C@H](O)[C@H](C)CCN(C)CCc2ccccn2)C(=O)N[C@H]([C@@H](C)O)C(=O)N(C)CC(=O)N(C)[C@@H](CC(C)C)C(=O)N[C@H](CC(C)C)C(=O)N(C)[C@H](CC(C)C)C(=O)N[C@H](C)C(=O)O[C@@H](C(C)C)C(=O)N1C [Example 4] (cyclo([Hiv][dNMeL][dL][dNMeV][X17][d(aThr)][Sar][NMeL][dL][dNMeL][dA]))	1 to 25 nM
CC(C)C[C@@H]1C(=O)N[C@H](CC(C)C)C(=O)N(C)[C@H](C(C)C)C(=O)N(C)[C@H]([C@H](O)[C@H](C)CCN2CCCC(C(F)(F)F)C2)C(=O)N[C@H]([C@@H](C)O)C(=O)N(C)CC(=O)N(C)[C@@H](CC(C)C)C(=O)N[C@H](CC(C)C)C(=O)N(C)[C@H](CC(C)C)C(=O)N[C@H](C)C(=O)O[C@@H](C(C)C)C(=O)N1C (stereo partly drawn) [Example 9] (cyclo([Hiv][dNMeL][dL][dNMeV][X19][d(aThr)][Sar][NMeL][dL][dNMeL][dA]))	1 to 25 nM
CC(C)C[C@@H]1C(=O)N[C@H](CC(C)C)C(=O)N(C)[C@H](C(C)C)C(=O)N(C)[C@H]([C@H](O)[C@H](C)CCCc2cccc(N3CCOCC3)n2)C(=O)N[C@H]([C@@H](C)O)C(=O)N(C)CC(=O)N(C)[C@@H](CC(C)C)C(=O)N[C@H](CC(C)C)C(=O)N(C)[C@H](CC(C)C)C(=O)N[C@H](C)C(=O)O[C@@H](C(C)C)C(=O)N1C [Example 20] (cyclo([Hiv][dNMeL][dL][dNMeV][X2][d(aThr)][Sar][NMeL][dL][dNMeL][dA]))	1 to 25 nM
